measured target: T1, human TREM2 (human, UniProt Q9NZC2 19-174, limits assumed)
T1 construct: also called triggering receptor expressed on myeloid cells 2
T1 sequence: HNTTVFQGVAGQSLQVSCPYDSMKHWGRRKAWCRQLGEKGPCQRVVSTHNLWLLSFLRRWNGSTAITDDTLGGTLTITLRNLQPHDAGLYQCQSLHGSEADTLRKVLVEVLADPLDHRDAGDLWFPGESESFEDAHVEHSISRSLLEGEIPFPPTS
procedure text: 1st screen, 10 nM Ab
endpoint label: Binding Signal

INSERT INTO assay_data (binder, result) VALUES
  ('V38 (antibody, V domains shown, also called 6E7 variant V38) VH: EVQLVQSGAEVKKPGESLKISCKGSGYSFGSYWIAWVRQMPGKGLEWMGIIYPGDSDVRYSPSFQGQVTISADKSISTAYLQWSSLKASDTAMYFCARQRTFYYDSSDYFDYWGQGTLVTVSS VL: DIQMTQSPSSVSASVGDRVTITCRASQGISSWLAWYQQKPGKAPKLLIYAASSRQNGVPSRFSGSGSGTDFTLTISSLQPEDFATYFCQQADSHPRTFGQGTKLEIK', '4.34 fold over 6E7 parental antibody'),
  ('V14 (antibody, V domains shown, also called 6E7 variant V14) VH: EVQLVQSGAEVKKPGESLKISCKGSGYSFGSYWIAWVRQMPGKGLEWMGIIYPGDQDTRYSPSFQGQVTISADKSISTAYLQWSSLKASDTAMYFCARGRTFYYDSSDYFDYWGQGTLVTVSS VL: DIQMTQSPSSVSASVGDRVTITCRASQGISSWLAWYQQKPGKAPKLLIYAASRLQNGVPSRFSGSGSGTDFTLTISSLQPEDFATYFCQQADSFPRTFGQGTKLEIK', '4.71 fold over 6E7 parental antibody'),
  ('V88 (antibody, V domains shown, also called 6E7 variant V88) VH: EVQLVQSGAEVKKPGESLKISCKGSGYSFGSYWIAWVRQMPGKGLEWMGIIYPGDSDTRYSPSFQGQVTISADKSISTAYLQWSSLKASDTAMYFCARQRTFYYDSSDYFDYWGQGTLVTVSS VL: DIQMTQSPSSVSASVGDRVTITCRASQGISSWLAWYQQKPGKAPKLLIYAASRLQRGVPSRFSGSGSGTDFTLTISSLQPEDFATYFCQQADSSPRTFGQGTKLEIK', '4.92 fold over 6E7 parental antibody'),
  ('V26 (antibody, V domains shown, also called 6E7 variant V26) VH: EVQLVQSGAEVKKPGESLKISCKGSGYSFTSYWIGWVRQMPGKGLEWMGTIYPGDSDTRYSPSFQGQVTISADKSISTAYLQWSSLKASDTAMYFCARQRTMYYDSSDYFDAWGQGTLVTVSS VL: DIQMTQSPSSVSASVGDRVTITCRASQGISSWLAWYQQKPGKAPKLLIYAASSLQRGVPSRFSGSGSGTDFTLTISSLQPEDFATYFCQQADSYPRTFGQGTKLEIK', '3.57 fold over 6E7 parental antibody'),
  ('V41 (antibody, V domains shown, also called 6E7 variant V41) VH: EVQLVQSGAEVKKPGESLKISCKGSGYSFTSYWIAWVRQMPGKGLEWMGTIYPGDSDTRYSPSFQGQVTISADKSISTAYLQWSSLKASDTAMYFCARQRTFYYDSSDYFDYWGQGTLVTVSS VL: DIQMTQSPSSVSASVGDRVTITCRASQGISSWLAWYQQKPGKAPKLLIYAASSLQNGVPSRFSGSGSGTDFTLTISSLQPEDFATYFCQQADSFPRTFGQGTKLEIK', '1.74 fold over 6E7 parental antibody'),
  ('V85 (antibody, V domains shown, also called 6E7 variant V85) VH: EVQLVQSGAEVKKPGESLKISCKGSGYSFRSYWIAWVRQMPGKGLEWMGTIYPGDSDTRYSPSFQGQVTISADKSISTAYLQWSSLKASDTAMYFCARSRTFYYDSSDYFDYWGQGTLVTVSS VL: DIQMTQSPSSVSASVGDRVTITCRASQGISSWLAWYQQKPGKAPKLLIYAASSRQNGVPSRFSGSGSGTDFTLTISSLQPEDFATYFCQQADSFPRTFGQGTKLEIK', '5.41 fold over 6E7 parental antibody'),
  ('V24 (antibody, V domains shown, also called 6E7 variant V24) VH: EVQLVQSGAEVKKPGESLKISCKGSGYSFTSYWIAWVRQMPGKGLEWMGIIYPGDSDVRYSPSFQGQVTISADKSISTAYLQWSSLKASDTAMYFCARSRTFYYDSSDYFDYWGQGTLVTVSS VL: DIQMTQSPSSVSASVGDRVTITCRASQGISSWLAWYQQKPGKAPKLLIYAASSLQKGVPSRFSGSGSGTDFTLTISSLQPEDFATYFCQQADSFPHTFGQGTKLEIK', '2.64 fold over 6E7 parental antibody'),
  ('V52 (antibody, V domains shown, also called 6E7 variant V52; LV-107/HV-107) VH: EVQLVQSGAEVKKPGESLKISCKGSGYSFESYWIAWVRQMPGKGLEWMGIIYPGDSDTRYSPSFQGQVTISADKSISTAYLQWSSLKASDTAMYFCARGRTFYYDSSDYFDYWGQGTLVTVSS VL: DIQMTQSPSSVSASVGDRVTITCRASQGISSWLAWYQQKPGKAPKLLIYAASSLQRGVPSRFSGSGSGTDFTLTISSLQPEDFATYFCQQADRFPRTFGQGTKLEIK', '3 fold over 6E7 parental antibody'),
  ('V75 (antibody, V domains shown, also called 6E7 variant V75) VH: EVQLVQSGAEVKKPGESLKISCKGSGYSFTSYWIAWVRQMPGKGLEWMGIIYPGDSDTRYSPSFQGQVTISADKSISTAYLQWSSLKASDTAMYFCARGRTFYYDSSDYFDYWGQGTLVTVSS VL: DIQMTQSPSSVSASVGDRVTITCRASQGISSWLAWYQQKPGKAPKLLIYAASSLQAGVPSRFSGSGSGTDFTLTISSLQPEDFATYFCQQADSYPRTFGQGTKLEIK', '4.64 fold over 6E7 parental antibody'),
  ('V25 (antibody, V domains shown, also called 6E7 variant V25) VH: EVQLVQSGAEVKKPGESLKISCKGSGYSFGSYWIAWVRQMPGKGLEWMGLIYPGDSDTRYSPSFQGQVTISADKSISTAYLQWSSLKASDTAMYFCARSRTFYYDSSDYFDYWGQGTLVTVSS VL: DIQMTQSPSSVSASVGDRVTITCRASQGISSWLAWYQQKPGKAPKLLIYAASSLANGVPSRFSGSGSGTDFTLTISSLQPEDFATYFCQQADSMPRTFGQGTKLEIK', '4.23 fold over 6E7 parental antibody');
